Items are presented alongside their recorded pEC50.
EXPERIMENTAL SYSTEM: S. aureus Alpha hemolysin (Staphylococcus aureus)
Sequence (P09616 27-319 limits assumed): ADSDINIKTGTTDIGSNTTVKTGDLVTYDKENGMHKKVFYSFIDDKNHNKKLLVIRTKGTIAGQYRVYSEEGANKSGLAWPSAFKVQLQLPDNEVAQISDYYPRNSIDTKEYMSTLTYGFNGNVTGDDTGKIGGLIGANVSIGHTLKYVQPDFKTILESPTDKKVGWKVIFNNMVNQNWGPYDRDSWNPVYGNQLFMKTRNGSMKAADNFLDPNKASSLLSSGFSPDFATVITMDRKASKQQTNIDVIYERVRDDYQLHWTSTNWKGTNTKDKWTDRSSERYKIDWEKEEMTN
TEST PROTOCOL: cell-based
ASSAY CONTEXT: A549-LDH Assay activity
pEC50: −log10 of the molar value.

{"STRUCTURE NOTATION": "CCOC(=O)c1ccccc1-c1ccc(NS(=O)(=O)c2cc3[nH]c(=O)c(=O)[nH]c3cc2C)cc1Cl", "EXPERIMENTAL SYSTEM": "S. aureus Alpha hemolysin (Staphylococcus aureus)", "pEC50": "5.22 to 6.00"}
{"STRUCTURE NOTATION": "COc1ccc(-c2ccc(NS(=O)(=O)c3cc4[nH]c(=O)c(=O)[nH]c4cc3C)cc2Cl)cc1", "EXPERIMENTAL SYSTEM": "S. aureus Alpha hemolysin (Staphylococcus aureus)", "pEC50": "7.00 to 7.52"}
{"STRUCTURE NOTATION": "O=c1[nH]c2cc(Cl)c(S(=O)(=O)Nc3ccc(C(F)(F)F)c(Cl)c3)cc2[nH]c1=O", "EXPERIMENTAL SYSTEM": "S. aureus Alpha hemolysin (Staphylococcus aureus)", "pEC50": "5.22 to 6.00"}
{"STRUCTURE NOTATION": "Cc1cc2[nH]c(=O)c(=O)[nH]c2cc1S(=O)(=O)Nc1ccc(-c2ccc(F)c(C(N)=O)c2)c(Cl)c1", "EXPERIMENTAL SYSTEM": "S. aureus Alpha hemolysin (Staphylococcus aureus)", "pEC50": "7.00 to 7.52"}
{"STRUCTURE NOTATION": "Cc1cc2[nH]c(=O)c(=O)[nH]c2cc1S(=O)(=O)NC12CC(c3ccccc3)(C1)C2", "EXPERIMENTAL SYSTEM": "S. aureus Alpha hemolysin (Staphylococcus aureus)", "pEC50": "6.00 to 7.00"}
{"STRUCTURE NOTATION": "O=c1[nH]c2cc(OC3CC3)c(S(=O)(=O)Nc3ccc(OC(F)(F)F)cc3)cc2[nH]c1=O", "EXPERIMENTAL SYSTEM": "S. aureus Alpha hemolysin (Staphylococcus aureus)", "pEC50": "6.00 to 7.00"}
{"STRUCTURE NOTATION": "O=c1[nH]c2cc(Cl)c(S(=O)(=O)Nc3ccc(-c4ccoc4)c(Cl)c3)cc2[nH]c1=O", "EXPERIMENTAL SYSTEM": "S. aureus Alpha hemolysin (Staphylococcus aureus)", "pEC50": "6.00 to 7.00"}
{"STRUCTURE NOTATION": "Cc1cc2[nH]c(=O)c(=O)[nH]c2cc1S(=O)(=O)Nc1ccc(OC(F)(F)F)cc1", "EXPERIMENTAL SYSTEM": "S. aureus Alpha hemolysin (Staphylococcus aureus)", "pEC50": "> 7.52"}
{"STRUCTURE NOTATION": "Cc1cc2[nH]c(=O)c(=O)[nH]c2cc1S(=O)(=O)Nc1ccc(-c2ccc(N(C)C)cc2)c(Cl)c1", "EXPERIMENTAL SYSTEM": "S. aureus Alpha hemolysin (Staphylococcus aureus)", "pEC50": "5.22 to 6.00"}
{"STRUCTURE NOTATION": "Cc1cc2[nH]c(=O)c(=O)[nH]c2cc1S(=O)(=O)Nc1ccc(-c2ccc(OC(F)(F)F)cc2)c(Cl)c1", "EXPERIMENTAL SYSTEM": "S. aureus Alpha hemolysin (Staphylococcus aureus)", "pEC50": "6.00 to 7.00"}
{"STRUCTURE NOTATION": "Cc1cc2[nH]c(=O)c(=O)[nH]c2cc1S(=O)(=O)Nc1cnc(-n2nccn2)c(Cl)c1", "EXPERIMENTAL SYSTEM": "S. aureus Alpha hemolysin (Staphylococcus aureus)", "pEC50": "6.00 to 7.00"}
{"STRUCTURE NOTATION": "Cc1cc2[nH]c(=O)c(=O)[nH]c2cc1S(=O)(=O)Nc1ccc(-c2ccc(F)c(C(N)=O)c2)c(C(F)(F)F)c1", "EXPERIMENTAL SYSTEM": "S. aureus Alpha hemolysin (Staphylococcus aureus)", "pEC50": "6.00 to 7.00"}
{"STRUCTURE NOTATION": "Cc1cc(-c2ccc(NS(=O)(=O)c3cc4[nH]c(=O)c(=O)[nH]c4cc3C)cc2Cl)ccn1", "EXPERIMENTAL SYSTEM": "S. aureus Alpha hemolysin (Staphylococcus aureus)", "pEC50": "6.00 to 7.00"}
{"STRUCTURE NOTATION": "Cc1cc2[nH]c(=O)c(=O)[nH]c2cc1S(=O)(=O)Nc1ccc(-c2ccc3c(c2)OCCN3C)c(Cl)c1", "EXPERIMENTAL SYSTEM": "S. aureus Alpha hemolysin (Staphylococcus aureus)", "pEC50": "5.22 to 6.00"}
{"STRUCTURE NOTATION": "CCOc1ccc(-c2ccc(NS(=O)(=O)c3cc4[nH]c(=O)c(=O)[nH]c4cc3C)cc2Cl)cc1", "EXPERIMENTAL SYSTEM": "S. aureus Alpha hemolysin (Staphylococcus aureus)", "pEC50": "6.00 to 7.00"}
{"STRUCTURE NOTATION": "Cc1cc2[nH]c(=O)c(=O)[nH]c2cc1S(=O)(=O)Nc1ccc(-c2ccc3nn[nH]c3c2)c(Cl)c1", "EXPERIMENTAL SYSTEM": "S. aureus Alpha hemolysin (Staphylococcus aureus)", "pEC50": "7.00 to 7.52"}
{"STRUCTURE NOTATION": "Cc1cc2[nH]c(=O)c(=O)[nH]c2cc1S(=O)(=O)Nc1ccc(-c2ccc(OC3CC3)cc2)c(Cl)c1", "EXPERIMENTAL SYSTEM": "S. aureus Alpha hemolysin (Staphylococcus aureus)", "pEC50": "6.00 to 7.00"}
{"STRUCTURE NOTATION": "Cc1cc2[nH]c(=O)c(=O)[nH]c2cc1S(=O)(=O)Nc1cnc(-c2cncc(Cl)c2)c(Cl)c1", "EXPERIMENTAL SYSTEM": "S. aureus Alpha hemolysin (Staphylococcus aureus)", "pEC50": "6.00 to 7.00"}
{"STRUCTURE NOTATION": "Cc1cc2[nH]c(=O)c(=O)[nH]c2cc1S(=O)(=O)Nc1ccc(-c2cccc(N3CCN(C)CC3)c2)c(Cl)c1", "EXPERIMENTAL SYSTEM": "S. aureus Alpha hemolysin (Staphylococcus aureus)", "pEC50": "6.00 to 7.00"}
{"STRUCTURE NOTATION": "O=c1[nH]c2cc(F)c(S(=O)(=O)Nc3ccc(C4CCCCC4)cc3)cc2[nH]c1=O", "EXPERIMENTAL SYSTEM": "S. aureus Alpha hemolysin (Staphylococcus aureus)", "pEC50": "6.00 to 7.00"}
{"STRUCTURE NOTATION": "Cc1cc(NS(=O)(=O)c2cc3[nH]c(=O)c(=O)[nH]c3cc2Cl)cc(C)c1-c1ccccc1", "EXPERIMENTAL SYSTEM": "S. aureus Alpha hemolysin (Staphylococcus aureus)", "pEC50": "7.00 to 7.52"}
{"STRUCTURE NOTATION": "CCc1cc2[nH]c(=O)c(=O)[nH]c2cc1S(=O)(=O)Nc1ccc(OC(F)(F)F)cc1", "EXPERIMENTAL SYSTEM": "S. aureus Alpha hemolysin (Staphylococcus aureus)", "pEC50": "7.00 to 7.52"}
{"STRUCTURE NOTATION": "Cc1cc2[nH]c(=O)c(=O)[nH]c2cc1S(=O)(=O)Nc1ccc(SC(F)(F)F)cc1", "EXPERIMENTAL SYSTEM": "S. aureus Alpha hemolysin (Staphylococcus aureus)", "pEC50": "7.00 to 7.52"}
{"STRUCTURE NOTATION": "Cc1cc2[nH]c(=O)c(=O)[nH]c2cc1S(=O)(=O)Nc1ccc2c(c1)B(O)OC2", "EXPERIMENTAL SYSTEM": "S. aureus Alpha hemolysin (Staphylococcus aureus)", "pEC50": "5.22 to 6.00"}
{"STRUCTURE NOTATION": "O=c1[nH]c2cc(F)c(S(=O)(=O)Nc3ccc(-c4ccsc4)c(Cl)c3)cc2[nH]c1=O", "EXPERIMENTAL SYSTEM": "S. aureus Alpha hemolysin (Staphylococcus aureus)", "pEC50": "5.22 to 6.00"}
{"STRUCTURE NOTATION": "Cc1cc(NS(=O)(=O)c2cc3[nH]c(=O)c(=O)[nH]c3cc2C)ccc1C(C)C", "EXPERIMENTAL SYSTEM": "S. aureus Alpha hemolysin (Staphylococcus aureus)", "pEC50": "6.00 to 7.00"}
{"STRUCTURE NOTATION": "Cc1cc2[nH]c(=O)c(=O)[nH]c2cc1S(=O)(=O)Nc1ccc(-c2ccncc2)c(Cl)c1", "EXPERIMENTAL SYSTEM": "S. aureus Alpha hemolysin (Staphylococcus aureus)", "pEC50": "7.00 to 7.52"}
{"STRUCTURE NOTATION": "Cc1cc2ccc(-c3ccc(NS(=O)(=O)c4cc5[nH]c(=O)c(=O)[nH]c5cc4C)cc3C(F)(F)F)cc2[nH]1", "EXPERIMENTAL SYSTEM": "S. aureus Alpha hemolysin (Staphylococcus aureus)", "pEC50": "> 7.52"}
